experimental.target: VIM-1 (Pseudomonas aeruginosa, UniProt A0A0F7KYQ8)
Construct: culture supernatant used unpurified
assay.explanation: biochemical
assay.setup: cleavage of nitrocefin (200 uM) by VIM-1 supernatant
pIC50: −log10 of the molar value.
test.readout: pIC50

compound: O=C(O)c1cccc2c1OB(O)[C@@H](Sc1nnc(NC3CNC3)s1)C2 [Compound 99]
pIC50: > 6.00

compound: Nn1cnnc1S[C@H]1Cc2ccc(F)c(C(=O)O)c2OB1O [Compound 20]
pIC50: ≤ 6.00

compound: COc1ccc2c(c1C(=O)O)OB(O)[C@@H](Sc1nnc(CN3CCNCC3)n1N)C2 [Compound 71]
pIC50: > 6.00

compound: NC(=O)COc1ccc2c(c1C(=O)O)OB(O)[C@@H](Sc1nnc(N)s1)C2 [Compound 80]
pIC50: > 6.00

compound: COc1ccc2c(c1C(=O)O)OB(O)[C@@H](Sc1nc(C(N)=O)cs1)C2 [Compound 61]
pIC50: > 6.00

response.value for Nc1nnc(S[C@H]2Cc3ccc(OCC(F)F)c(C(=O)O)c3OB2O)s1 [Compound 90] (field: pIC50) = > 6.00

response.value for COc1ccc2c(c1C(=O)O)OB(O)[C@@H](Sc1ncn(CCCC(=O)O)n1)C2 [Compound 40] (field: pIC50) = ≤ 6.00

response.value for COc1c(F)cc2c(c1C(=O)O)OB(O)[C@@H](Sc1nnc(N)s1)C2 [Compound 114] (field: pIC50) = > 6.00
